Target: human apelin receptor (Homo sapiens)
Sequence (P35414 whole entry): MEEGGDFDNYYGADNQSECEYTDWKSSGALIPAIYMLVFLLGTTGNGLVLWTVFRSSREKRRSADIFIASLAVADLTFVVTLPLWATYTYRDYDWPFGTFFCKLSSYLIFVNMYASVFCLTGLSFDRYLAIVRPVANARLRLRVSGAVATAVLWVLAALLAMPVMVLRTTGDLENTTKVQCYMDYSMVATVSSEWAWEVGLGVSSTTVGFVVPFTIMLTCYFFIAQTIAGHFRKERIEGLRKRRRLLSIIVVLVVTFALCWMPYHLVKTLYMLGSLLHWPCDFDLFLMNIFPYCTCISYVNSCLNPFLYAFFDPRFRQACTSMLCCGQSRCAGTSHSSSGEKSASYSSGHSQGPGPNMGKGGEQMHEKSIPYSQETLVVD
Test: Measurement of apelin receptor agonist activity (cell-based assay determining the amount of intracellular cAMP)
Settings: CHO cells stably expressing the human apelin receptor, Forskolin 10 μM, 30 minutes, 100% efficacy = [Pyr1]-apelin-13 0.300 μM, concentration giving 50% efficacy
assay.metric: EC50 (nM)

Some solved entries appear below for comparison.
molecule: COC(=O)c1ccc(CSc2nnc(-c3ccc(C)o3)n2-c2c(OC)cccc2OC)cc1
value.reported: 71

molecule: COc1cccc(OC)c1-n1c(CSc2nnc[nH]2)nnc1-c1ccc(C)o1
value.reported: 1330

A: COC(=O)c1cccc(CSc2nnc(-c3ccc(C)o3)n2-c2c(OC)cccc2OC)c1
B: COc1cccc(OC)c1-n1c(S)nnc1-c1ccc(C)o1
C: COc1cccc(OC)c1-n1c(CCC(C)=O)nnc1-c1ccc(C)o1
Please order the records by their reported EC50, lowest number first. A ranking is expressed here by listing the labels in the requested order.
B, A, C
(B: 31 nM, A: 208 nM, C: 751 nM)

a: COc1cccc(OC)c1-n1c(SCC(=O)O)nnc1-c1ccc(Br)o1
b: COc1cccc(OC)c1-n1c(COCC(=O)O)nnc1-c1ccc(C)o1
So which one has the bigger EC50 here, a or b ? Kindly give the label for the entry you pick.
b

a: COc1cccc(OC)c1-n1c(OCC(OC)OC)nnc1-c1ccc(C)o1
b: COc1cccc(OC)c1-n1c(SC(C(=O)O)C(C)C)nnc1-c1ccc(C)o1 (stereo not drawn)
So which one has the bigger EC50 here, a or b ? Kindly give the label for the entry you pick.
a
(a: 744 nM, b: 39 nM)

Cited source for all entries: patent US11155525B2
